Entry source: PubChem BioAssay (NCI)

Assay: NCI Yeast Anticancer Drug Screen. Data for the mlh1 rad18 strain (AID 175)
Details: S. cerevisiae mlh1 rad18 strain growth inhibition; at 50.0 µM (retest, dose inferred, filed as 5.0)
Experimental: Growth inhibition of yeast strains with defined genetic alterations is measured as a screen for potential anti-cancer activity. Selected strains with alterations in DNA damage repair or cell cycle control were exposed to compounds and growth inhibition was measured relative to vehicle treated controls. The strain used in this assay is mlh1 rad18
About 79,000 compounds went through this panel and 15% of them were active in at least one assay; those are over-represented in the sample as a whole. Active and inactive are the calls of the source. Cut-off read from the data, not from the text of the source: active = growth inhibition above about 70%; inactive = the rest.
Permitted responses: T = active, F = inactive

# input Which outcome was entered for the compound COC(=O)C1=C(NC(=O)Nc2ccc(Cl)cc2)OC(C)(C)C1c1ccc(Cl)cc1 (configuration not stated) in this test?
# output T

# input Which outcome was entered for the compound O=C(Nc1ccc(Br)cc1)c1c(-c2ccccc2)c2ccc(O)cc2oc1=O in this test?
# output T

# input Which outcome was entered for the compound CC(=O)OC1COC(N2C(=O)C(=O)c3cc(Br)ccc32)C(OC(C)=O)C1OC(C)=O (configuration not stated) in this test?
# output F

# input Which outcome was entered for the compound CSc1nc(SC)c2cn(Cc3ccccc3)nc2n1 in this test?
# output T

# input Which outcome was entered for the compound CCC(=O)c1cc2ccccc2c2ccccc12 in this test?
# output F

# input Which outcome was entered for the compound CCCCCOCC(=O)OC in this test?
# output F

# input Which outcome was entered for the compound CCCCCCCCCCCCOC(=O)C[n+]1cccc(C(=O)Nc2ccccc2)c1 in this test?
# output T
